target: UniProt Q9NR96; test: TLR9 inhibition reporter assay (HEK-Blue SEAP); conditions: HEK-Blue cells overexpressing human TLR9, ODN2006 5 nM, 22 hour incubation
Sequence (Q9NR96 26-1032): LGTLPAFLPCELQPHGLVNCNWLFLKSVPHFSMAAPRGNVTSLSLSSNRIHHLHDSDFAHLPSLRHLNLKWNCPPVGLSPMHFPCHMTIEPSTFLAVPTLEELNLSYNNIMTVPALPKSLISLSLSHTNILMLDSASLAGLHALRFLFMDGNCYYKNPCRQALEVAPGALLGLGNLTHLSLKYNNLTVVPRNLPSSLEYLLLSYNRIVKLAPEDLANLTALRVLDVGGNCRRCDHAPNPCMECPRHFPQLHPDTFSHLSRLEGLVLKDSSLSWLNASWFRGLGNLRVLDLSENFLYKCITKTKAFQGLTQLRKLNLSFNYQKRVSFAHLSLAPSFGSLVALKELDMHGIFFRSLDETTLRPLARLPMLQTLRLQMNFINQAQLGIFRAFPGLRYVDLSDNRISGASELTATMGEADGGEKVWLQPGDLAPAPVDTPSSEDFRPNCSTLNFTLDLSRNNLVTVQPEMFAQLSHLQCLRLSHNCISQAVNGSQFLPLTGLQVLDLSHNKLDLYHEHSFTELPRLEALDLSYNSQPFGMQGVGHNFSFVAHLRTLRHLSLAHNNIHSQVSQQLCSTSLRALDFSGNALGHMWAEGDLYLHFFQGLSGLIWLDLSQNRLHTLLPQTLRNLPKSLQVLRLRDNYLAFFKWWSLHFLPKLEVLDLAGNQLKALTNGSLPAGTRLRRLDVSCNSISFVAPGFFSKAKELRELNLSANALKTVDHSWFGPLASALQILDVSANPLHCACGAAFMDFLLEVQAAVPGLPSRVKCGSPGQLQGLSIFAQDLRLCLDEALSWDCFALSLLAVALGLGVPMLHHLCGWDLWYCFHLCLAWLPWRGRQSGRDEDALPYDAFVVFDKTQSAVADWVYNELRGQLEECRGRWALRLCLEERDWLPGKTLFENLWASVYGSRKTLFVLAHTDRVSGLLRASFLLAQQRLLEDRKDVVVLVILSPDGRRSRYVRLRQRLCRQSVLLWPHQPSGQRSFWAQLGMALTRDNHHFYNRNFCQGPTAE
I'd appreciate it if you could supply IC50 values for the items below.
Give bare numbers, in µM.

Below, each entry is followed by its recorded IC50 result.
[
  {
    "structure as smiles": "COc1cc(-c2[nH]c3ccc(C4CCN(CCNC(=O)CCCCCCCCCCC(=O)NCCN5CCC(c6ccc7[nH]c(-c8cc(OC)c9ncnn9c8)c(C(C)C)c7c6)CC5)CC4)cc3c2C(C)C)cn2ncnc12",
    "u": "µM",
    "IC50": 0.099
  },
  {
    "structure as smiles": "COc1cc(-c2[nH]c3ccc(C4CCN(CCCCCCCCCCCCCCCCCCN5CCC(c6ccc7[nH]c(-c8cc(OC)c9ncnn9c8)c(C(C)C)c7c6)CC5)CC4)cc3c2C(C)C)cn2ncnc12",
    "u": "µM",
    "IC50": 13.4
  },
  {
    "structure as smiles": "COc1cc(-c2[nH]c3ccc(C4CCN(CCNC(=O)CCCCCC(=O)NCCN5CCC(c6ccc7[nH]c(-c8cc(OC)c9ncnn9c8)c(C(C)C)c7c6)CC5)CC4)cc3c2C(C)C)cn2ncnc12",
    "u": "µM",
    "IC50": 0.175
  }
]

Switching to the query record.
Form field: reported IC50 of COc1cc(-c2[nH]c3ccc(C4CCN(CCNC(=O)CCC(=O)NCCN5CCC(c6ccc7[nH]c(-c8cc(OC)c9ncnn9c8)c(C(C)C)c7c6)CC5)CC4)cc3c2C(C)C)cn2ncnc12
4.6
